tested on: CAF#2 (primary prostate cancer-associated fibroblasts of iCAF-like type); experiment: drug sensitivity score (DSS2, normalised partial AUC of dose-response, 72 h CellTiter-Glo viability) (DSS (dimensionless)); higher = more sensitive (stronger growth inhibition / cytotoxicity); extreme values may be limits of the assay
TEST_READOUT: drug sensitivity score
Numbers only.

INSERT INTO measurements (compound, observed_value) VALUES
  ('COc1cc(OC2CCN(C)CC2)ccc1Nc1ncc2c(n1)n(C1CCCC1)c(=O)n2C [AZ 3146] (tested concentration range 1-10000 nM)', 4.3);

Please look at the items below and tell me drug sensitivity score for each one, in order.
1. CC[C@H](NC(=O)[C@H](C)NC)C(=O)N1C[C@@H](O)C[C@H]1Cc1c(-c2[nH]c3cc(F)ccc3c2C[C@@H]2C[C@H](O)CN2C(=O)[C@H](CC)NC(=O)[C@H](C)NC)[nH]c2cc(F)ccc12 [Birinapant] (tested concentration range 0.1-1000 nM)
2. CC1(C)CCC(CN2CCN(c3ccc(C(=O)NS(=O)(=O)c4ccc(NCC5CCOCC5)c([N+](=O)[O-])c4)c(Oc4cnc5[nH]ccc5c4)c3)CC2)=C(c2ccc(Cl)cc2)C1 [Venetoclax] (tested concentration range 0.1-1000 nM)

Given back:
1: 0; 2: 0

Please look at the items below and tell me drug sensitivity score for each one, in order.
1. COC[C@H](NC(=O)c1cnc(C)s1)C(=O)N[C@@H](COC)C(=O)N[C@@H](Cc1ccccc1)C(=O)[C@@]1(C)CO1 [Oprozomib] (tested concentration range 0.2-2500 nM)
2. FC(F)(F)c1ccc(CNc2ccc(Cc3c[nH]c4ncc(Cl)cc34)cn2)cn1 [Pexidartinib] (tested concentration range 1-10000 nM)
3. CCCCCOC(=O)Nc1nc(=O)n([C@@H]2O[C@H](C)[C@@H](O)[C@H]2O)cc1F [Capecitabine] (tested concentration range 1-10000 nM)
4. CC(=O)O[C@H]1C(=O)[C@@]2(C)[C@H]([C@H](OC(=O)c3ccccc3)[C@]3(O)C[C@H](OC(=O)[C@H](O)[C@@H](NC(=O)c4ccccc4)c4ccccc4)C(C)=C1C3(C)C)[C@]1(OC(C)=O)CO[C@@H]1C[C@@H]2O [Paclitaxel] (tested concentration range 0.1-1000 nM)
5. NC1(c2ccc(-c3nc4ccn5c(=O)[nH]nc5c4cc3-c3ccccc3)cc2)CCC1 [MK-2206] (tested concentration range 0.1-1000 nM)
6. Nc1ccn([C@@H]2O[C@H](CO)[C@@H](O)[C@@H]2O)c(=O)n1 [Cytarabine] (tested concentration range 1-10000 nM)

Given back:
1: 16; 2: 5.9; 3: 0; 4: 16.8; 5: 2.6; 6: 10

Values compiled from the supplement of paper PMC12592484.
